# ASSAY SYSTEM: human Gal3-His (Homo sapiens, UniProt P17931)
# Sequence (P17931 whole entry): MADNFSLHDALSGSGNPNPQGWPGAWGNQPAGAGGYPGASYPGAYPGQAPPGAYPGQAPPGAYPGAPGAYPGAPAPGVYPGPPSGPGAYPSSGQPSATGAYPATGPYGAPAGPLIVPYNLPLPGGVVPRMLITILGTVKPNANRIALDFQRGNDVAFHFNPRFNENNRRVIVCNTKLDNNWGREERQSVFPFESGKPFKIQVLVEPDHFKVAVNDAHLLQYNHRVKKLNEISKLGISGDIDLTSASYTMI
# ASSAY REMARKS: Antibody binning by biolayer interferometry (Gator)
# Format: binding
# EXPERIMENTAL PARAMETERS: antibody competition
EXPERIMENTAL ENDPOINT: Bin
Enter the number alone.

Below are worked cases with known answers.
{"columns": ["MOLECULE", "Bin"],
 "data": [
  ["IMT001: anti-Gal3 monoclonal antibody (Immutics); printed as mIMT001 (IMT001), murine (antibody, V domains shown) VH: QIQLVQSGPELKKPGETVKISCKASGYTFTNYGMNWVKQAPGKGLKWMGWINTNTGEPTYVEEFKGRFAFSLETSASTAYLQINNLKNEDTATYFCAPYDNFFAYWGQGTLVTVSA VL: DIVITQDELSNPVTSGESVSISCRSSKSLLYKDGKTYLNWFLQRPGQSPQLLIYLMSTHASGVSDRFSGSGSGTDFTLEISRVKAEDVGVYYCQQLVDYPLTFGAGTKLELK", 1],
  ["23H9.2E4: murine anti-Gal3 antibody (antibody, V domains shown) VH: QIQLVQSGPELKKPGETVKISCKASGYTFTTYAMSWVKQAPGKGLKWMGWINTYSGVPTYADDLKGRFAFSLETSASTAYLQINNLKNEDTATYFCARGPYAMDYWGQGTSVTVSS VL: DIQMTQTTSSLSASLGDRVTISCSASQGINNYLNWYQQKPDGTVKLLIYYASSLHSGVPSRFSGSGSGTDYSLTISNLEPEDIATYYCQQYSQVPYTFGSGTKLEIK", 4]
]}

Then there is this molecule:
Prompt line: Which Bin is listed for 15F10.2D6: murine anti-Gal3 antibody (antibody, V domains shown) VH: EVQLVESGGGLVKPGGSLKLSCAASGFAFSSYAMSWVRQTPEKRLEWVATISDGGVYTYYTDHVKGRFTISRDNAEDNLYLQMSHLKSEDTAMYYCVRDGGYWGQGTTLTVSS VL: DVLMTQTPLSLPVSLGDQASISCRSSQSIVHNNGNTYLEWYLQKPGQSPKLLIYKVSNRFSGVPDRFSGSGSGTDFTLKISRVEAEDLGVYYCFQGSHVPLTFGGGTKLELK ?
Response line: 8
